- test_target: dAsCas12a Ultra (Acidaminococcus sp., UniProt U2UMQ6 1-1307, M537R;F870L;D908A;E993A;D1235A)
- assay_method_text: Spec-seq (native PAGE EMSA with sequencing of bound and unbound); 25 mM Tris-HCl pH 7.4, 150 mM KCl, 5 mM MgCl2, 10% glycerol, 1 mM DTT, 40 ng/uL salmon sperm DNA; 400 nM Cas12a, 480 nM crRNA, 50 nM library, 37 C 1 h; native PAGE at room temperature; high values mean tight binding
- condition_summary: protein: recombinant
Give measured binding signal for each item. Keep answers brief.
# output: number + unit

Q. Tell me the measured binding signal of TTCT (dsDNA) DNA 1: GCTATCTAGTGCTCAGTACGCACTGTTCTAGGAAACTTCTGGCAGGACCAGGTCATGAGATCGGAAGAGCACACGTCTGAACTCCAGTCA DNA 2: TGACTGGAGTTCAGACGTGTGCTCTTCCGATCTCATGACCTGGTCCTGCCAGAAGTTTCCTAGAACAGTGCGTACTGAGCACTAGATAGC RNA: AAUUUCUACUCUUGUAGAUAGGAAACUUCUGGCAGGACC , please.
A. -6.53 lnKA

Q. Now consider TCTC (dsDNA) DNA 1: GCTATCTAGTGCTCAGTACGCACTGTCTCAGGAAACTTCTGGCAGGACCAGGTCATGAGATCGGAAGAGCACACGTCTGAACTCCAGTCA DNA 2: TGACTGGAGTTCAGACGTGTGCTCTTCCGATCTCATGACCTGGTCCTGCCAGAAGTTTCCTGAGACAGTGCGTACTGAGCACTAGATAGC RNA: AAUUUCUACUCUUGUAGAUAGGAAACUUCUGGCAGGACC .
A. -3.61 lnKA

Q. Now consider TTTT (dsDNA) DNA 1: GCTATCTAGTGCTCAGTACGCACTGTTTTAGGAAACTTCTGGCAGGACCAGGTCATGAGATCGGAAGAGCACACGTCTGAACTCCAGTCA DNA 2: TGACTGGAGTTCAGACGTGTGCTCTTCCGATCTCATGACCTGGTCCTGCCAGAAGTTTCCTAAAACAGTGCGTACTGAGCACTAGATAGC RNA: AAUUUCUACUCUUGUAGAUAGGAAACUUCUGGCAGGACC .
A. -3.17 lnKA

Q. Now consider TGGA (dsDNA) DNA 1: GCTATCTAGTGCTCAGTACGCACTGTGGAAGGAAACTTCTGGCAGGACCAGGTCATGAGATCGGAAGAGCACACGTCTGAACTCCAGTCA DNA 2: TGACTGGAGTTCAGACGTGTGCTCTTCCGATCTCATGACCTGGTCCTGCCAGAAGTTTCCTTCCACAGTGCGTACTGAGCACTAGATAGC RNA: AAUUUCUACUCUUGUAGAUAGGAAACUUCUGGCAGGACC .
A. -8 lnKA

The measurements presented in this section are drawn from paper PMC8222333.
